B1: CPEB3 Ribozyme (parent)
chain: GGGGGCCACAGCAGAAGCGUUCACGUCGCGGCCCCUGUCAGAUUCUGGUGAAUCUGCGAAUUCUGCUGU

- Variants of: B1
- Assay Remarks: self-cleavage, relative activity (ratio to wild type); higher = more cleavage; co-transcriptional
Rule: self-cleavage of 0.3 or more gives Fulfilled; anything lower gives Not fulfilled.

Completed entries (count: 6):
Macromolecule Sequence: GGCGACCACAGCAGAAGCGUUCACGUCGCGGCCCCUGUCAGAUUCUGGUGAAUCUGCGAAUUCUGCUGU [G3C G5A]
Assigned Category: Not fulfilled
//
Macromolecule Sequence: GGGGACCACAGCAGAAGCGUUCACGUCGCGGCCCCUGUCAGAUUGUGGUGAAUCUGCGAAUUCUGCUGU [G5A C45G]
Assigned Category: Fulfilled
//
Macromolecule Sequence: GGGGGCCACAGCAGAAGCGUUCACGUCGCGGACCCUGUCAGAAUCUGGUGAAUCUGCGAAUUCUGCUGU [C32A U43A]
Assigned Category: Fulfilled
//
Macromolecule Sequence: GGGGGCCACAGCAGAAGCGUACACGUCGCGGCCCCUGUCAGAUUCUGGUGAAUCUGCGAGUUCUGCUGU [U21A A60G]
Assigned Category: Fulfilled
//
Macromolecule Sequence: GGGGGCCACAGCAGAAGCGUUCACGUCGCGGCCCCUGUCAGAUUCUGGUGAAUCUGCGAAUCGUGCUGU [U62C C63G]
Assigned Category: Fulfilled
//
Macromolecule Sequence: GGGGGCCACAGCAGAAGCGUUCACGUCGCUGCCCCUGUCAGAUUCUGGUGAAUCUGCGAUUUCUGCUGU [G30U A60U]
Assigned Category: Not fulfilled

Check if self-cleavage >= 0.3 (inclusive). Item: GGGGGCCACAGCAGAAGCGUUCACCUCGCGGCCCCUGUCAGAUUCUGGUGAAUCUGCGAAUUUUGCUGU [G25C C63U]
Not fulfilled

For this variant, is measured self-cleavage 0.3 or higher? GGGGGCCACAGCAGAAGCGUUCACGUCGCGGCCCCUGUCAGAUUCUGGUGAAUCUGCGAAUUCGGCUGA [U64G U69A]
Fulfilled
